Recorded values, source ChEMBL document CHEMBL1155973.

Below is a list of entries, each paired with its recorded log10(IC50) value.
Target: UniProt P06239
Sequence (P06239 whole entry): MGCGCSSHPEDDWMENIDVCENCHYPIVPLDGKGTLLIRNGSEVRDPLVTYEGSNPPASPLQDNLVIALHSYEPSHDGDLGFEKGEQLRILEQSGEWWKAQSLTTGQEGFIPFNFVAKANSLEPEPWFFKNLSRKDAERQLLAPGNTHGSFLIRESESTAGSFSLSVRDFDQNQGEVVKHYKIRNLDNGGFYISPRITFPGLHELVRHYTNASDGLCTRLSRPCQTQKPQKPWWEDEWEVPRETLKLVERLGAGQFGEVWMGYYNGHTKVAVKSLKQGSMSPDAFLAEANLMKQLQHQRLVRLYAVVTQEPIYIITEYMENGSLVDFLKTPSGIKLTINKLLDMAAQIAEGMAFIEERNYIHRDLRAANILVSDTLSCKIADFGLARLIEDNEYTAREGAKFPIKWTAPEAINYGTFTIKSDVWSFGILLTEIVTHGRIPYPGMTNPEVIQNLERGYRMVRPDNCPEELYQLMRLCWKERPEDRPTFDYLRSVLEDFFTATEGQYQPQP
Test: Inhibition of Lck
Quick note: numbers are log10 of IC50, with nM as the unit.

Check out these entries, answers already filled in.
Compound: CC(C)CN1CCN(C(=O)Nc2cccc3ccccc23)C[C@H]1[C@H](C)Nc1nccc(-n2cnc3ccccc32)n1
log10(IC50): -0.70
--
Compound: CCOC(=O)CN1CCN(C(=O)Nc2cccc3ccccc23)C[C@H]1[C@H](C)Nc1nccc(-n2cnc3ccccc32)n1
log10(IC50): -0.35
--
Compound: C[C@H](Nc1nccc(-n2cnc3ccccc32)n1)[C@@H]1CN(C(=O)Nc2cccc3ccccc23)CCN1c1ccncc1
log10(IC50): -0.70
--
Compound: C[C@H](Nc1nccc(-n2cnc3ccccc32)n1)C1CCCCC1
log10(IC50): 2.39
--
Compound: CC(Nc1nccc(-n2cnc3ccccc32)n1)C1CN(C(=O)Nc2cccc3ccccc23)CCN1S(C)(=O)=O (stereo not drawn)
log10(IC50): 1.07

Tested on UniProt P06239: C[C@H](Nc1nccc(-n2cnc3cc(-c4ccnc(N)n4)ccc32)n1)[C@@H]1CN(C(=O)Nc2cccc3ccccc23)CCN1C . Observed log10(IC50): -1.15

Per the reported UniProt P06239 data, C[C@H](Nc1nccc(-n2cnc3cc(-c4ccncc4)ccc32)n1)c1ccccc1 has log10(IC50) of 0.48
